target: Substance-P receptor (Cavia porcellus)
Sequence (P30547 whole entry): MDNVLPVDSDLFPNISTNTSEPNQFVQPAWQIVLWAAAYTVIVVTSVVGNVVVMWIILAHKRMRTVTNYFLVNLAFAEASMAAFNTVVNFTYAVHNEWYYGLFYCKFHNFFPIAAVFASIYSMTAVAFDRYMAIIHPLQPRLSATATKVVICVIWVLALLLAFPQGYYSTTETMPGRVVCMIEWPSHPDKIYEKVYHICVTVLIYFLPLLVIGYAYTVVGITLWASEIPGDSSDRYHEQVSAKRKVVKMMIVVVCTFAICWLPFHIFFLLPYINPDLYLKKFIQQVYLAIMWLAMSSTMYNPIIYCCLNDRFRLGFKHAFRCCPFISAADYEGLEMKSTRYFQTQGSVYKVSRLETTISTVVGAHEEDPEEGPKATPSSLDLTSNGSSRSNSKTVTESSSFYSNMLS
Square brackets hold non-standard residues; d marks the D form. Peptide text beside a SMILES is read from it. pGlu = O=C1CC[C@@H](C(=O)O)N1; Ahp(2) = CCCCC[C@H](N)C(=O)O
metric: pIC50
To interpret pIC50, take it as minus log10 of a concentration measured in moles per litre.

State its pIC50 on Substance-P receptor (Cavia porcellus): CSCC[C@H](NC(=O)[C@H](CC(C)C)NC(=O)CNC(=O)[C@H](Cc1ccccc1)NC(=O)[C@H](Cc1ccccc1)NC(=O)[C@H](CCC(N)=O)NC(=O)[C@@H]1CCC(=O)N1)C(N)=O ([pGlu]QFFGLM-NH2)
7.60

State its pIC50 on Substance-P receptor (Cavia porcellus): CCCCC[C@H](NC(=O)[C@H](CC(C)C)NC(=O)CNC(=O)[C@H](Cc1ccccc1)NC(=O)[C@H](Cc1ccccc1)NC(=O)[C@H](CCC(N)=O)NC(=O)[C@@H]1CCC(=O)N1)C(N)=O ([pGlu]QFFGL[Ahp(2)]-NH2)
7.01

State its pIC50 on Substance-P receptor (Cavia porcellus): CCCCC[C@H](NC(=O)[C@H](CC(C)C)NC(=O)CNC(=O)[C@H](Cc1ccccc1)NC(=O)[C@H](Cc1ccccc1)NC(=O)[C@H](CCC(N)=O)NC(=O)[C@H](CCC(N)=O)NC(C)=O)C(N)=O (Ac-QQFFGL[Ahp(2)]-NH2)
7.35
